All values here come from patent US12721844B2.

- System: Salmonella typhimurium TA1535
- measurement-description: Ames test (reverse mutation test), TA1535
- Format: cell-based
- condition-notes: S9 Mix −, 185 μg/plate
Each entry below lists one item and its recorded Number of revertant colonies TA1535 value.
readout: Number of revertant colonies TA1535

>>> result_value("CC(C)(C)Oc1cccc(-c2cc(N)nn2-c2ccccc2)c1 [Metabolite C]")
4
>>> result_value("Nc1cc(-c2cccc(OC(F)(F)F)c2)n(-c2cccc(F)c2)n1 [Metabolite G]")
9
>>> result_value("CC(C)(OCc1cc(F)cc(-c2cc(N)nn2-c2ccc(F)cc2)c1)C(F)(F)F [Metabolite D]")
9
>>> result_value("Cc1cccc(-n2nc(N)cc2-c2cccc(OC(F)(F)F)c2)c1 [Metabolite H]")
14
>>> result_value("Nc1cc(-c2cccc(OCC(F)(F)F)c2)n(-c2ccc(F)cc2)n1 [Metabolite E]")
6
>>> result_value("Cc1ccc(-n2nc(N)cc2-c2cccc(OCC(F)(F)F)c2)cc1 [Metabolite F]")
3
